target.system: UniProt P08908
Sequence (P08908 whole entry): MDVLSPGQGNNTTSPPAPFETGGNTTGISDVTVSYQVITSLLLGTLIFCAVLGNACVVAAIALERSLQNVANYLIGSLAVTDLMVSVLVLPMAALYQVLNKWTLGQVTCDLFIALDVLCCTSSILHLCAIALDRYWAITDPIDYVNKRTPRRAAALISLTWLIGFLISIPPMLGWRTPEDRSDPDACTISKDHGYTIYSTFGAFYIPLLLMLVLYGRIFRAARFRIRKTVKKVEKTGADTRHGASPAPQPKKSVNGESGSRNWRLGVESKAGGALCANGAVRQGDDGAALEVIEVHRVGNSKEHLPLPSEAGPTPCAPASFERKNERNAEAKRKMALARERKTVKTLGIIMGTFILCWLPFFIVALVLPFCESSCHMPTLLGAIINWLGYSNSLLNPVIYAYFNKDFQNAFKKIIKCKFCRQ
assay.procedure: Binding affinity to human 5HT1A receptor expressed in HEK-293 EBNA cell membranes by [3H]-8-hydroxy-DPAT radioligand binding
measured.property: pKi
Numbers only, as −log10 of the molar value.

-- ask // pKi lookup, key: CN(C)c1cccc2c(S(=O)(=O)NCCCCC34CCCN3C(=O)N(CCCCN3CCN(c5cccc6ccccc56)CC3)C4=O)cccc12 (stereo unspecified)
-- reply 7.42
